- targetOrSystem: SIRT1 (Homo sapiens, UniProt Q96EB6)
- experimentalProtocol: Trp mass spectrometry assay of SIRT1 activity (EC1.5, percent maximum activation)
- Format: biochemical
- statedConditions: Trp mass spectrometry assay; EC1.5 = concentration giving 150% activation of SIRT1
quantityMeasured: TRP Activity (EC1.5)

Answered cases to consult:
CCc1cncc(NC(=O)N2c3nc(-c4ccnc(C)c4)ccc3N3CC[C@H]2C3)n1 ... A (EC1.5<1 μM)
O=C(Nc1cncc(OC[C@H](O)CO)c1)N1c2nc(-c3cccc(C(F)(F)F)c3)c(Cl)cc2N2CC[C@H]1C2 ... A (EC1.5<1 μM)
CCc1cnc(NC(=O)N2c3nc(-c4ccnc(C)c4)ccc3N3CC[C@H]2C3)cn1 ... A (EC1.5<1 μM)
O=C(Nc1ccc(OC[C@@H](O)CO)cn1)N1c2nc(-c3cccc(C(F)(F)F)c3)c(Cl)cc2N2CC[C@H]1C2 ... B (EC1.5 1-25 μM)
Cc1cc(-c2ccc3c(n2)N(C(=O)N2CCCC2)[C@H]2CCN3C2)ccn1 ... C (EC1.5>25 μM)

TRP Activity (EC1.5) for O=C(Nc1ccnc(OC[C@@H](O)CO)n1)N1c2nc(-c3cccc(C(F)(F)F)c3)c(Cl)cc2N2CC[C@H]1C2 is A (EC1.5<1 μM)

TRP Activity (EC1.5) for CCc1cc(-c2ccc3c(n2)N(C(=O)Nc2cnccn2)[C@H]2CCN3C2)ccn1 is A (EC1.5<1 μM)

TRP Activity (EC1.5) for O=C(Nc1nccc(OC[C@H](O)CO)n1)N1c2nc(-c3cccc(C(F)(F)F)c3)c(Cl)cc2N2CC[C@H]1C2 is A (EC1.5<1 μM)

TRP Activity (EC1.5) for CC(C)(O)CCOc1nccc(NC(=O)N2c3nc(-c4cccc(C(F)(F)F)c4)c(Cl)cc3N3CC[C@H]2C3)n1 is B (EC1.5 1-25 μM)

TRP Activity (EC1.5) for Cc1cc(-c2nc3c(cc2F)N2CC[C@@H](C2)N3C(=O)Nc2ccccn2)ccn1 is A (EC1.5<1 μM)

TRP Activity (EC1.5) for O=C(Nc1cnc(OC[C@H](O)CO)cn1)N1c2nc(-c3cccc(C(F)(F)F)c3)c(Cl)cc2N2CC[C@H]1C2 is B (EC1.5 1-25 μM)

TRP Activity (EC1.5) for Cc1cc(-c2ccc3c(n2)N(C(=O)Nc2cncc(F)n2)[C@H]2CCN3C2)ccn1 is A (EC1.5<1 μM)

TRP Activity (EC1.5) for Cc1cc(-c2ccc3c(n2)N(C(=O)Nc2cnc(C4CC4)cn2)[C@H]2CCN3C2)ccn1 is B (EC1.5 1-25 μM)

TRP Activity (EC1.5) for CC(C)c1cc(-c2ccc3c(n2)N(C(=O)Nc2cnccn2)[C@H]2CCN3C2)ccn1 is A (EC1.5<1 μM)

TRP Activity (EC1.5) for O=C(Nc1cccc(OCCCO)n1)N1c2nc(-c3cccc(C(F)(F)F)c3)c(Cl)cc2N2CC[C@H]1C2 is A (EC1.5<1 μM)

TRP Activity (EC1.5) for CC(C)(CO)COc1cncc(NC(=O)N2c3nc(-c4cccc(C(F)(F)F)c4)c(Cl)cc3N3CC[C@H]2C3)n1 is B (EC1.5 1-25 μM)

---

- targetOrSystem: SIRT1 (Homo sapiens, UniProt Q96EB6)
- Sequence (Q96EB6 1-747): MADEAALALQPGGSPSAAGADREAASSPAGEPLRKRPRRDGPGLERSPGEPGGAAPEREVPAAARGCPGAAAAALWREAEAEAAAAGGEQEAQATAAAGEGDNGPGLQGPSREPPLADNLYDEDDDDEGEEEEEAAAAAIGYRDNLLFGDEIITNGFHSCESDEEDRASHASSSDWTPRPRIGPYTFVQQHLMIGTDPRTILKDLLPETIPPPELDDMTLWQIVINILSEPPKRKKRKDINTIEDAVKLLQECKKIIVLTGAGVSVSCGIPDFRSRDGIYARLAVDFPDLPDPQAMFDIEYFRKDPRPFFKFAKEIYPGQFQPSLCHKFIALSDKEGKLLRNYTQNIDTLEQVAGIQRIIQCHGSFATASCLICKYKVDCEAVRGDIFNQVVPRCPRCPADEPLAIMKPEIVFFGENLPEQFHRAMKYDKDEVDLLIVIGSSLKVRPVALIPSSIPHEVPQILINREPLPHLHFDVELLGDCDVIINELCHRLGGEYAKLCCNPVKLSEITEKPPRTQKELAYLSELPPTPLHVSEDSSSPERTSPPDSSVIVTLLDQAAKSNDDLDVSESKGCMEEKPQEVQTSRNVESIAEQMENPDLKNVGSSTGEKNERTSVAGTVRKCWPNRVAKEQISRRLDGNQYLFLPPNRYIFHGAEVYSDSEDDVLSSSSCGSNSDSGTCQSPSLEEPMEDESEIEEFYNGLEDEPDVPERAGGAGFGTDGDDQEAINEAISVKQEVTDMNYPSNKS
- experimentalProtocol: Trp mass spectrometry assay of SIRT1 activity (EC1.5, percent maximum activation)
- Type: biochemical
- statedConditions: Trp mass spectrometry assay; EC1.5 = concentration giving 150% activation of SIRT1
quantityMeasured: TRP Activity (EC1.5)

Answered cases to consult:
Cc1cc2c(nc1-c1cccc(C(F)F)c1)N(C(=O)Nc1ccnc(OC[C@@H](O)CO)c1)[C@H]1CCN2C1 ... A (EC1.5<1 μM)
Cc1cc(-c2ccc3c(n2)N(C(=O)Nc2ccc4[nH]ncc4n2)[C@H]2CCN3C2)ccn1 ... A (EC1.5<1 μM)
CCOc1cc(-c2ccc3c(n2)N(C(=O)Nc2cnccn2)[C@H]2CCN3C2)ccn1 ... B (EC1.5 1-25 μM)
Cc1ccc(-c2cc(C)c3c(n2)N(C(=O)Nc2ccccn2)[C@H]2CCN3C2)cn1 ... B (EC1.5 1-25 μM)
O=C(Nc1cc(OC[C@H](O)CO)ccn1)N1c2nc(-c3cccc(C(F)(F)F)c3)c(Cl)cc2N2CC[C@H]1C2 ... B (EC1.5 1-25 μM)

TRP Activity (EC1.5) for COc1ncc(C(F)(F)F)cc1-c1nc2c(cc1Cl)N1CC[C@@H](C1)N2C(=O)Nc1ccnc(OC[C@@H](O)CO)c1 is B (EC1.5 1-25 μM)

TRP Activity (EC1.5) for Cc1cc(-c2ccc3c(n2)N(C(=O)Nc2ccc4[nH]ncc4c2)[C@H]2CCN3C2)ccn1 is A (EC1.5<1 μM)

---

- targetOrSystem: SIRT1 (Homo sapiens, UniProt Q96EB6)
- experimentalProtocol: Trp mass spectrometry assay of SIRT1 activity (EC1.5, percent maximum activation)
- Assay type: biochemical
- statedConditions: Trp mass spectrometry assay; EC1.5 = concentration giving 150% activation of SIRT1
quantityMeasured: TRP Activity (EC1.5)

Answered cases to consult:
O=C(Nc1ccccn1)N1c2nc(N3CCC[C@H]3C(F)(F)F)ccc2N2CC[C@H]1C2 [Example 120] ... B (EC1.5 1-25 μM)
O=C(O)c1cc(-c2ccc3c(n2)N(C(=O)Nc2cnccn2)[C@H]2CCN3C2)ccn1 [Example 177] ... C (EC1.5>25 μM)
Cc1cc(-c2nc3c(cc2F)N2CC[C@@H](C2)N3C(=O)Nc2cccnc2)ccn1 [Example 14] ... B (EC1.5 1-25 μM)
O=C(Nc1cnccn1)N1c2nc(N3CCNCC3)ccc2N2CC[C@H]1C2 [Example 197] ... C (EC1.5>25 μM)
Cc1cc(-c2nc3c(cc2C)N2CC[C@@H](C2)N3C(=O)Nc2cccnc2)ccn1 [Example 17] ... B (EC1.5 1-25 μM)
COc1ncc(-c2nc3c(cc2Cl)N2CC[C@@H](C2)N3C(=O)Nc2ccnc(OC[C@@H](O)CO)c2)cc1C(F)(F)F [Example 99] ... B (EC1.5 1-25 μM)

Let's switch to this compound now.
TRP Activity (EC1.5) for Cc1ccc(-c2nc3c(cc2F)N2CC[C@@H](C2)N3C(=O)Nc2ccccn2)cn1 [Example 5] is B (EC1.5 1-25 μM)

---

- targetOrSystem: SIRT1 (Homo sapiens, UniProt Q96EB6)
- experimentalProtocol: Trp mass spectrometry assay of SIRT1 activity (EC1.5, percent maximum activation)
- Type: biochemical
- statedConditions: Trp mass spectrometry assay; EC1.5 = concentration giving 150% activation of SIRT1
quantityMeasured: TRP Activity (EC1.5)

Answered cases to consult:
Cc1cncc(-c2ccc3c(n2)N(C(=O)Nc2cnccn2)[C@H]2CCN3C2)c1 ... B (EC1.5 1-25 μM)
Cc1cc(-c2nc3c(cc2Cl)N2CC[C@@H](C2)N3C(=O)Nc2cc(OC[C@H](O)CO)ncn2)ccn1 ... C (EC1.5>25 μM)
Cc1cc(-c2ccc3c(n2)N(C(=O)NCc2ccccn2)[C@H]2CCN3C2)ccn1 ... C (EC1.5>25 μM)
O=C(Nc1ccnc(OC[C@H](O)CO)c1)N1c2nc(-c3cnn(C4CC4)c3)c(Cl)cc2N2CC[C@H]1C2 ... B (EC1.5 1-25 μM)
Cc1cc(-c2cccc(C(F)(F)F)c2)nc2c1N1CC[C@@H](C1)N2C(=O)Nc1ccnc(OC[C@@H](O)CO)c1 ... A (EC1.5<1 μM)
CCc1ccc(-c2ccc3c(n2)N(C(=O)Nc2cnccn2)[C@H]2CCN3C2)cn1 ... B (EC1.5 1-25 μM)
Cc1cc(-c2ccc3c(n2)N(C(=O)Nc2cncc(C4CC4)n2)[C@H]2CCN3C2)ccn1 ... A (EC1.5<1 μM)
Cc1ncc(-c2ccnc(NC(=O)N3c4nc(-c5cccc(C(F)(F)F)c5)cc(C)c4N4CC[C@H]3C4)c2)o1 ... A (EC1.5<1 μM)
Cc1cc(-c2nc3c(cc2Cl)N2CC[C@@H](C2)N3C(=O)Nc2cccc(OC[C@@H](O)CO)n2)ccn1 ... B (EC1.5 1-25 μM)
Cc1cc(-c2cc(C)c3c(n2)N(C(=O)Nc2cccnc2)[C@H]2CCN3C2)ccn1 ... A (EC1.5<1 μM)

Considering Cn1cc(-c2nc3c(cc2Cl)N2CC[C@@H](C2)N3C(=O)Nc2ccnc(OC[C@@H](O)CO)c2)cn1 , its TRP Activity (EC1.5) with SIRT1 (Homo sapiens, UniProt Q96EB6) was recorded as B (EC1.5 1-25 μM)

Considering Cc1ccc2c(NC(=O)N3c4nc(-c5cccc(C(F)(F)F)c5)c(Cl)cc4N4CC[C@H]3C4)n[nH]c2n1 , its TRP Activity (EC1.5) with SIRT1 (Homo sapiens, UniProt Q96EB6) was recorded as A (EC1.5<1 μM)

Considering Cc1cc(-c2ccc3c(n2)N(C(=O)Nc2cnccn2)[C@H]2CCN3C2)c(C)cn1 , its TRP Activity (EC1.5) with SIRT1 (Homo sapiens, UniProt Q96EB6) was recorded as B (EC1.5 1-25 μM)

Considering Cl.O=C(Nc1ccnc(OC[C@@H](O)CO)c1)N1c2nc(-c3cccc(C(F)(F)F)c3)c(Cl)cc2N2CC[C@H]1C2 , its TRP Activity (EC1.5) with SIRT1 (Homo sapiens, UniProt Q96EB6) was recorded as A (EC1.5<1 μM)

Considering Cn1cc(-c2nc3c(cc2Cl)N2CC[C@@H](C2)N3C(=O)Nc2ccnc(OC[C@H](O)CO)c2)cn1 , its TRP Activity (EC1.5) with SIRT1 (Homo sapiens, UniProt Q96EB6) was recorded as B (EC1.5 1-25 μM)

Considering Cc1cc(-c2ccc3c(n2)N(C(=O)Nc2cnncn2)[C@H]2CCN3C2)ccn1 , its TRP Activity (EC1.5) with SIRT1 (Homo sapiens, UniProt Q96EB6) was recorded as C (EC1.5>25 μM)

Considering Cc1cc(-c2ccc3c(n2)N(C(=O)N[C@@H](C)c2ccccn2)[C@H]2CCN3C2)ccn1 , its TRP Activity (EC1.5) with SIRT1 (Homo sapiens, UniProt Q96EB6) was recorded as C (EC1.5>25 μM)

Considering Cc1cc(-c2ccc3c(n2)N(C(=O)Nc2ccn(C)n2)[C@H]2CCN3C2)ccn1 , its TRP Activity (EC1.5) with SIRT1 (Homo sapiens, UniProt Q96EB6) was recorded as B (EC1.5 1-25 μM)
